Where do the numbers come from? From patent US12479822B2.

Molecular target: Human AHR (Homo sapiens)
Sequence (P35869 11-848): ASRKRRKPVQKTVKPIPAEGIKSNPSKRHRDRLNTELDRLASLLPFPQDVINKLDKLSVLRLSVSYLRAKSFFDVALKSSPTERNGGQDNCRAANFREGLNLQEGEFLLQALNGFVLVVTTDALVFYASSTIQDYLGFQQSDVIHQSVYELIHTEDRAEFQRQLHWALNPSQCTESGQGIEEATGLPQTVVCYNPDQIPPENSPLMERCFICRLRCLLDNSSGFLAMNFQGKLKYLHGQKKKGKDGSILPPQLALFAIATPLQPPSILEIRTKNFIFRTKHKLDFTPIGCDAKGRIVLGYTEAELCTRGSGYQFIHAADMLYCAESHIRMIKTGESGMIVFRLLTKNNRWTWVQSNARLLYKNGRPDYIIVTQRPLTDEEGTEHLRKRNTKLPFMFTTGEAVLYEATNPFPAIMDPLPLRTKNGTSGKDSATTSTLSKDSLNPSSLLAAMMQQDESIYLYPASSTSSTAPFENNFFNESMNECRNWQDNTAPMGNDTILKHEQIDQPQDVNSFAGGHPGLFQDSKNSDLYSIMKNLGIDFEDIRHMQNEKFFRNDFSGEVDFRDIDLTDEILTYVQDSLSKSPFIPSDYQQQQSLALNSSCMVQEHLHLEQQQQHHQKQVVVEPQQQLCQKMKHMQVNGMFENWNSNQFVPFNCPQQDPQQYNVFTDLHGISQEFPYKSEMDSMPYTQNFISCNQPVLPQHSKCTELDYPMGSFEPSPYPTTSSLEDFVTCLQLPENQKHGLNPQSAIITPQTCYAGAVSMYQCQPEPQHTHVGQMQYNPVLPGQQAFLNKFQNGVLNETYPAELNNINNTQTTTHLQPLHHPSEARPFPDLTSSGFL
Assay: hAHR Nuclear Translocation Assay
Details: Jump-In T-REx HEK293 cells expressing AhR-EGFP chimera; 45 minutes incubation; ratio of EGFP fluorescent intensity in nuclear over cytosol; 20-point curve
reported property: EC50 (nM)

Answered examples (10):
smiles_entry=Cn1c(=O)c(C(=O)Nc2ncc(F)cn2)cc2c(NCCO)cccc21 test_result=81.2
smiles_entry=CN(C)CCNc1ccc2c(c1)cc(C(=O)Nc1ccc(F)cn1)c(=O)n2C test_result=20.3
smiles_entry=Cc1ccccc1NC(=O)c1cc2ccccc2n(C)c1=O test_result=3.5
smiles_entry=COc1ccc(NC(=O)c2cc3ccc(NCCN(C)C)cc3n(C)c2=O)cc1 test_result=79.2
smiles_entry=Cn1c(=O)c(C(=O)Nc2ccc(F)cn2)cc2cc(NCCO)ccc21 test_result=53.9
smiles_entry=COc1cnc(NC(=O)c2cc3ccccc3n(C)c2=O)nc1 test_result=14.2
smiles_entry=Cn1c(=O)c(C(=O)Nc2ccc(F)cc2)cc2ccccc21 test_result=0.214
smiles_entry=Cn1c(=O)c(C(=O)NC23CC(C2)C3)cc2ccccc21 test_result=16.4
smiles_entry=Cn1c(=O)c(C(=O)Nc2ccccc2)cc2ccc(NCCO)cc21 test_result=15.1
smiles_entry=Cn1c(=O)c(C(=O)Nc2ccccc2)cc2c(OCCO)cccc21 test_result=1.4

[A] Cn1c(=O)c(C(=O)Nc2ccc(F)cn2)cc2c(NCCO)cccc21
[B] CN(C)CCNc1cccc2c1cc(C(=O)Nc1ncc(F)cn1)c(=O)n2C
Please indicate which entry, A or B , has the lower recorded EC50 value. Output the label that corresponds to your choice.
A
(A: 1.92 nM, B: 62.8 nM)

[1] Cc1ccc(NC(=O)c2cc3ccccc3n(C)c2=O)cc1
[2] Cn1c(=O)c(C(=O)Nc2ccncc2)cc2ccccc21
Compare EC50: is it lower for 1 or for 2 ? // respond with label for picked entry
1
